Molecular target: Cyp21 enzyme (Human HEK 293-Cyp21 stable transfected cells) (Homo sapiens, UniProt P08686)
Construct: expressed in transfected cells
Sequence (P08686 1-495): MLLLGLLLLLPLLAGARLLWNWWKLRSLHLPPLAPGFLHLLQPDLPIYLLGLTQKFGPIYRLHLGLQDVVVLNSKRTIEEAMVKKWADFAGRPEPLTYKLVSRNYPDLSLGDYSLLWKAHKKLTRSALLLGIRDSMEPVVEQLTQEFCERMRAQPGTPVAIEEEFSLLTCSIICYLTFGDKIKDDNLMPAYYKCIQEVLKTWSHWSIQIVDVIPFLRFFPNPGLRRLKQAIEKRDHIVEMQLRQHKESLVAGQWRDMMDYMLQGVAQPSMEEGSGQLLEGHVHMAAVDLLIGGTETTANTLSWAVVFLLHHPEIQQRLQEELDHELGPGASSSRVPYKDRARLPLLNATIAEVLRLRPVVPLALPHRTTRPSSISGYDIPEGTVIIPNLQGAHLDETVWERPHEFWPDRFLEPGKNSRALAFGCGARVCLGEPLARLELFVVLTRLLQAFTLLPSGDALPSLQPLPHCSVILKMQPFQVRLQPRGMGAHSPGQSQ
Assay: CYP21-HEK293 enzymatic assay (% inhibition at 100 nM) (Biological Example 10)
Format: cell-based
Details: compound at 100 nM; HEK 293-Cyp21 cells; read-out: CYP21-HEK293 enzymatic assay % inhibition at 100 nM (Biological Example No. 10)
# key: entry, value: inhibition at 0.1 µM
READOUT_NAME: inhibition at 0.1 µM

CC(=O)NC1CC[C@@]2(C)C(=CCC3C2CC[C@]2(C)C(n4ccnc4)=CCC32)C1 (stereo partly drawn) [Compound 237] :: < 30%
CC(=O)N[C@@H]1CC[C@@]2(C)C(=CC[C@H]3C4=CC=C(n5ccnc5)[C@@]4(C)CC[C@@H]32)C1 [Compound 245] :: < 30%
C[C@]12CC[C@H]3[C@@H](CC[C@H]4CC(=O)NCC[C@@]43C)C1=CC=C2n1ccnc1 [Compound 447] :: ≥ 30%
CON=C1C=C2CCC3C4=CC=C(c5cccnc5)[C@@]4(C)CCC3[C@@]2(C)CC1 (stereo partly drawn) [Compound 287] :: ≥ 30%
C[C@]12CCC3C(CCC4=CC(=NO)CC[C@@]43C)C1=CC=C2c1cccnc1 (stereo partly drawn) [Compound 288] :: < 30%
CCNC(=O)NC1CC[C@@]2(C)C(=CCC3C2CC[C@]2(C)C(n4ccnc4)=CCC32)C1 (stereo partly drawn) [Compound 242] :: < 30%
C[C@]12CCC(NC(=O)C3CC3)CC1=CCC1C2CC[C@]2(C)C(n3ccnc3)=CCC12 (stereo partly drawn) [Compound 238] :: < 30%
COC(=O)NC1CC[C@@]2(C)C(=CCC3C2CC[C@]2(C)C(n4ccnc4)=CCC32)C1 (stereo partly drawn) [Compound 239] :: < 30%
CN1CC[C@@]2(C)C(=CC1=O)CC[C@H]1C3=CC=C(c4cnccn4)[C@@]3(C)CC[C@@H]12 [Compound 184] :: ≥ 30%

---

Molecular target: CYP17 (human testicular microsome) (Homo sapiens)
Construct: using microsomal fraction from human testis (Celsis Cat #S00110) as the enzyme source; tissue Celsis S00110; host or cells: human testis microsomal fraction
Experiment: CYP17 enzymatic assay (% inhibition at 1 nM) (Biological Example 12)
Assay type: biochemical
Conditions: compound at 1 nM, read-out: Biological Example No. 12: CYP17 enzymatic assay % inhibition at 1 nM
Below is a list of entries, each paired with its recorded inhibition at 0.001 µM value.
READOUT_NAME: inhibition at 0.001 µM

C[C@]12CC(O)CC1CCC1C2CC[C@]2(C)C(c3cccnc3)=CCC12 (stereo partly shown) :: > 50%
C[C@]12CCC(=O)C=C1C=CC1C2CC[C@]2(C)C(c3cncc(F)c3)=CCC12 (stereo partly shown) :: > 50%
Cc1ccncc1C(=O)O[C@H]1CC[C@@]2(C)C(=CC[C@H]3C4=CC=C(c5cccnc5)[C@@]4(C)CC[C@@H]32)C1 :: 10 to 50%
C[C@]12CC[C@H]3[C@@H](CC(c4ccccc4)C4=CC(=O)CC[C@@]43C)C1=CC=C2c1cccnc1 (stereo partly shown) :: 10 to 50%
CCC1CC2C(CC[C@]3(C)C(c4cccnc4)=CCC23)[C@@]2(C)CCC(=O)C=C12 (stereo partly shown) :: 10 to 50%
C[C@]12CC[C@H]3[C@@H](CCC4=CC(=O)CC[C@@]43C)C1=CC=C2c1cncc(F)c1 :: > 50%
C[C@]12CC[C@H]3[C@@H](CC=C4C[C@@H](O)CC[C@@]43C)C1=CC=C2c1cncc(Cl)c1 :: 10 to 50%

---

Quick reference: inhibition at 0.1 µM of the listed items.
Biological target: Cyp21 enzyme (Human HEK 293-Cyp21 stable transfected cells) (Homo sapiens, UniProt P08686)
Construct: expressed in transfected cells
Assay: CYP21-HEK293 enzymatic assay (% inhibition at 100 nM) (Biological Example 10)
Type: cell-based
Conditions: 100 nM compound, HEK 293-Cyp21 cells; read-out: Biological Example No. 10: CYP21-HEK293 percent inhibition at 100 nM
READOUT_NAME: inhibition at 0.1 µM

Cc1cncc(C2=CC[C@H]3[C@@H]4CCC5=CC(=O)N(C)CC[C@]5(C)[C@H]4CC[C@]23C)c1 :: < 30%
CN1CC[C@@]2(C)C(=CC1=O)CC[C@H]1C3=CC=C(c4cccnc4)[C@@]3(C)CC[C@@H]12 :: ≥ 30%
C[C@]12CCNC(=O)C=C1CC[C@@H]1[C@@H]2CC[C@]2(C)C(c3cncnc3)=CC[C@@H]12 :: ≥ 30%
COc1cncc(C2=CC=C3[C@@H]4CCC5=CC(=O)NCC[C@]5(C)[C@H]4CC[C@]23C)c1 :: ≥ 30%
C[C@]12CC[C@H]3[C@@H](CCC4=CC(=O)CC[C@@]43C)C1=CC=C2n1ccnc1 :: < 30%
C[C@]12CCCC(=O)CC1=CCC1[C@@H]2CC[C@]2(C)C(n3ccnc3)=CC[C@@H]12 (stereo partly shown) :: ≥ 30%
C[C@]12CCNC(=O)C=C1CC[C@@H]1[C@@H]2CC[C@]2(C)C(c3cnccn3)=CC[C@@H]12 :: ≥ 30%

---

Some compounds, each annotated with its measured inhibition at 0.001 µM.
Molecular target: CYP17 (human testicular microsome) (Homo sapiens, UniProt P05093)
Construct: using microsomal fraction from human testis (Celsis Cat #S00110) as the enzyme source; tissue Celsis S00110; host or cells: human testis microsomal fraction
Sequence (P05093 whole entry): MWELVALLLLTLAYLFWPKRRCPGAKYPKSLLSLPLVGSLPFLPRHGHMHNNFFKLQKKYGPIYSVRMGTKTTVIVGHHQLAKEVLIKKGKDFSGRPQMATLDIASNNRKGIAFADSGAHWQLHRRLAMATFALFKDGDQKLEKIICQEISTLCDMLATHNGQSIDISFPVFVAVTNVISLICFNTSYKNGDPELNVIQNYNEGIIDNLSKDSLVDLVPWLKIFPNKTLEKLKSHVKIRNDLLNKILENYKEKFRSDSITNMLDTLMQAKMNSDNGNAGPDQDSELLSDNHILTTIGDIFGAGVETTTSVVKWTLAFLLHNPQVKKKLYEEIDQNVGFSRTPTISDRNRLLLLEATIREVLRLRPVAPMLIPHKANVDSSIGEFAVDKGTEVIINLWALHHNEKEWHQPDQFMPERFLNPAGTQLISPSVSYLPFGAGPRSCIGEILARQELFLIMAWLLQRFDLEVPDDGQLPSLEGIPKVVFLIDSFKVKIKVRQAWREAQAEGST
Test: CYP17 enzymatic assay (% inhibition at 1 nM) (Biological Example 12)
Type: biochemical
Conditions: compound at 1 nM, read-out: Biological Example No. 12: CYP17 enzymatic assay % inhibition at 1 nM
READOUT_NAME: inhibition at 0.001 µM

CC(=O)N[C@@H]1CC[C@@]2(C)C(=CC[C@@H]3[C@@H]2CC[C@]2(C)C(c4cncc(F)c4)=CC[C@@H]32)C1 :: > 50%
C[C@]12CCC3C(CC(F)C4(O)C[C@@H](O)CC[C@]34C)C1CC=C2c1cncc(F)c1 (some centres unmarked) :: > 50%
C[C@]12CCC(=O)C=C1C(c1ccccc1)CC1C2CC[C@]2(C)C(c3cncc(F)c3)=CCC12 (some centres unmarked) :: < 10%
C[C@]12CCC(=O)C=C1C(c1ccccc1)CC1C2CC[C@]2(C)C(c3cccnc3)=CCC12 (some centres unmarked) :: < 10%
CC(=O)NC1CC[C@@]2(C)C(CCC3C2CC[C@]2(C)C(c4cccnc4)=CCC32)C1C (some centres unmarked) :: < 10%
C[C@]12CCNC(=O)C=C1C1(CC1)CC1C2CC[C@]2(C)C(c3cccnc3)=CCC12 (some centres unmarked) :: 10 to 50%
C[C@]12C=CC(=NO)C=C1C1(CC1)C[C@@H]1[C@@H]2CC[C@]2(C)C(c3cccnc3)=CC[C@@H]12 :: 10 to 50%
C[C@]12CC[C@H](O)CC1=CCC1C2CC[C@]2(C)C(c3cncc(N)c3)=CCC12 (some centres unmarked) :: > 50%

---

Target: CYP17 (human testicular microsome) (Homo sapiens, UniProt P05093)
Construct: using microsomal fraction from human testis (Celsis Cat #S00110) as the enzyme source; tissue Celsis S00110; host or cells: human testis microsomal fraction
Assay: CYP17 enzymatic assay (% inhibition at 1 nM) (Biological Example 12)
Type: biochemical
Conditions: compound at 1 nM, read-out: Biological Example No. 12: CYP17 enzymatic assay % inhibition at 1 nM
READOUT_NAME: inhibition at 0.001 µM

C[C@]12CCC3C(CC(F)[C@@]4(O)C[C@@H](O)CC[C@]34C)C1CC=C2c1cccnc1 (stereo partly drawn) [Compound 323] :: > 50%
C[C@]12CC[C@H](O)CC1=CCC1C2CC[C@]2(C)C(c3cncc(NS(C)(=O)=O)c3)=CCC12 (stereo partly drawn) [Compound 284] :: < 10%
C[C@]12CC[C@H](O)CC1=CCC1C2CC[C@]2(C)C(c3cncc(C(F)F)c3)=CCC12 (stereo partly drawn) [Compound 279] :: > 50%
C[C@]12CCC(=O)C=C1C=CC1C2CC[C@]2(C)C(c3cccnc3)=CCC12 (stereo partly drawn) [Compound 408] :: > 50%
CCNC(=O)NC1CC[C@@]2(C)C(CCC3C2CC[C@]2(C)C(c4cccnc4)=CCC32)C1C (stereo partly drawn) [Compound 414] :: < 10%
C[C@]12CCC3C(CCC45CC4NC(=O)CC[C@]35C)C1CC=C2c1cccnc1 (stereo partly drawn) [Compound 387] :: < 10%
C[C@]12CCC3(CCC(=O)O3)CC1CCC1C2CC[C@]2(C)C(c3cccnc3)=CCC12 (stereo partly drawn) [Compound 477] :: < 10%
CC1C[C@@]2(C)C(CC[C@@H]3[C@@H]2CC[C@]2(C)C(c4cccnc4)=CC[C@@H]32)C(C)C1O (stereo partly drawn) [Compound 416] :: 10 to 50%
C[C@]12CCC(=O)C=C1C(=O)CC1C2CC[C@]2(C)C(c3cncc(F)c3)=CCC12 (stereo partly drawn) [Compound 417] :: > 50%
CC1=C2CC[C@@H]3[C@H](CC[C@]4(C)C(c5cccnc5)=CC[C@@H]34)[C@@]2(C)CCC1O (mixture of isomers) [Compound 302] :: 10 to 50%
CC1C[C@H]2C3=CC=C(c4cccnc4)[C@@]3(C)CC[C@@H]2[C@@]2(C)CCC(=O)C=C12 (stereo partly drawn) [Compound 315] :: > 50%
C[C@]1(O)CC[C@@]2(C)C(CCC3C2CC[C@]2(C)C(c4cncc(Cl)c4)=CCC32)C1 (stereo partly drawn) [Compound 265] :: < 10%
CC1C(O)CC[C@@]2(C)C1CC[C@@H]1[C@@H]2CC[C@]2(C)C(c3cccnc3)=CC[C@@H]12 (stereo partly drawn) [Compound 304] :: 10 to 50%
C[C@]12CCC(=O)C=C1C(C1CC1)C[C@@H]1[C@@H]2CC[C@]2(C)C(c3cccnc3)=CC[C@@H]12 (stereo partly drawn) [Compound 339] :: < 10%
C[C@@]1(O)CC[C@@]2(C)C(CCC3C2CC[C@]2(C)C(c4cncc(Cl)c4)=CCC32)C1 (stereo partly drawn) [Compound 266] :: 10 to 50%
C[C@]12CC[C@H](O)CC1=CCC1C2CC[C@]2(C)C(c3cncc(F)c3)=CCC12 (stereo partly drawn) [Compound 274] :: > 50%
C[C@]12CCNC(=O)C=C1C1CC1[C@@H]1[C@@H]2CC[C@]2(C)C(c3cncc(F)c3)=CC[C@@H]12 (stereo partly drawn) [Compound 388] :: > 50%
C[C@]12CCNC(=O)CC1CCC1C2CC[C@]2(C)C(c3cncc(C(F)F)c3)=CCC12 (stereo partly drawn) [Compound 483] :: > 50%
